- TARGET SYSTEM: CFTR ΔF508 mutant (Homo sapiens, UniProt P13569, DEL508-508)
- Construct: expressed in transfected cells; host or cells: CFBE41o- (adenoviral transduction)
- Sequence (P13569 with tags, fused parts or gaps DEL508-508): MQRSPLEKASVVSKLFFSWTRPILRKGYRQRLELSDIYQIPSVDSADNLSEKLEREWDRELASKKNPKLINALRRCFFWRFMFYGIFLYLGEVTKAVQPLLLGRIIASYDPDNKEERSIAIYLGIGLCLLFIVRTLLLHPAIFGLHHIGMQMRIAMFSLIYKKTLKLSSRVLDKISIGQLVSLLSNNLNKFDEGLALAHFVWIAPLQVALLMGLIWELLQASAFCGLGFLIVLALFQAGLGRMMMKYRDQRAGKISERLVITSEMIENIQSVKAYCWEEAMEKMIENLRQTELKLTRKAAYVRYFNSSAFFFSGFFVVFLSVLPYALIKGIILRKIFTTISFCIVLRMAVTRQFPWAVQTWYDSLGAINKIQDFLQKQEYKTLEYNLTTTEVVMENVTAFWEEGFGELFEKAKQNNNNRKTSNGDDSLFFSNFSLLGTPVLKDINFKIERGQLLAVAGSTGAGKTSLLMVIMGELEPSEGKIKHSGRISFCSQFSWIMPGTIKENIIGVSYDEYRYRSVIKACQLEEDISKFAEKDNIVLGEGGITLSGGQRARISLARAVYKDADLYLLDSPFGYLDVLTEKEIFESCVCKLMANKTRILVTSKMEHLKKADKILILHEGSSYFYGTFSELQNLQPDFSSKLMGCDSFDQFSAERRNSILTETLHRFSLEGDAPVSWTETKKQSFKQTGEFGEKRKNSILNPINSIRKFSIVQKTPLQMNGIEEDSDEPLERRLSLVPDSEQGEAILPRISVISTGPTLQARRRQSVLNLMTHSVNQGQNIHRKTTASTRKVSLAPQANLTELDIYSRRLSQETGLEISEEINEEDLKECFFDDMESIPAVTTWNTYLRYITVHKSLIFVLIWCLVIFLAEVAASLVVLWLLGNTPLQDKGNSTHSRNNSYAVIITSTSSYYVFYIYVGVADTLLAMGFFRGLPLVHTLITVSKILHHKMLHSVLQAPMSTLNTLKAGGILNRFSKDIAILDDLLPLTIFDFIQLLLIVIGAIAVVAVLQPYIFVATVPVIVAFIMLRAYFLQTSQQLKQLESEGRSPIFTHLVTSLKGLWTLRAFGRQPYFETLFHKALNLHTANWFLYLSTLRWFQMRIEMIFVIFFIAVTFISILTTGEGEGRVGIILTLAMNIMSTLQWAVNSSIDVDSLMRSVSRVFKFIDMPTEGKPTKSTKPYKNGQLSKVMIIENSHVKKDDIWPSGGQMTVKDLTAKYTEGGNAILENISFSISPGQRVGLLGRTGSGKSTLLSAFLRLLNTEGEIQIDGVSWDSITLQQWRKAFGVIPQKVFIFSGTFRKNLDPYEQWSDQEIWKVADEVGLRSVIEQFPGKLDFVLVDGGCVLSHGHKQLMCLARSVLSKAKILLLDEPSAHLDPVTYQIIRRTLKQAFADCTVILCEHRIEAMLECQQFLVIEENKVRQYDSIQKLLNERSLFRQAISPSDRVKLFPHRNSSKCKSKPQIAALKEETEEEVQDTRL
- ASSAY TEXT: YFP-halide influx assay for the CFTR-ΔF508 mutation, PBS buffer (96 well)
- Format: cell-based
- REPORTED CONDITIONS: CFBE41o- cells, forskolin 10.67 μM
MEASURED ENDPOINT: EC50 (nM)
Answers are plain numbers, in nM.

CC1CN(S(=O)(=O)c2cc(C(N)=O)c(NC(=O)c3ccccc3C(F)(F)F)s2)CC(C)O1 (centres unmarked)
102
COc1ccc(OC)c(S(=O)(=O)c2cc(C(N)=O)c(NC(=O)C3(O)CC3)s2)c1
78.5
NC(=O)c1cc(S(=O)(=O)c2cccc(F)c2)sc1NC(=O)C1(O)CC1
41.5

Then this compound:
Exam item: Please report the recorded EC50 for `CN(C1CC1)S(=O)(=O)c1cc(C(N)=O)c(NC(=O)c2cc[nH]n2)s1` .
Marked response: 34.5

====

Would you mind telling me the reported pEC50 of each entry?
- TARGET SYSTEM: CFTR-R117H (Homo sapiens, UniProt P13569, R117H)
- Sequence (P13569 whole entry R117H): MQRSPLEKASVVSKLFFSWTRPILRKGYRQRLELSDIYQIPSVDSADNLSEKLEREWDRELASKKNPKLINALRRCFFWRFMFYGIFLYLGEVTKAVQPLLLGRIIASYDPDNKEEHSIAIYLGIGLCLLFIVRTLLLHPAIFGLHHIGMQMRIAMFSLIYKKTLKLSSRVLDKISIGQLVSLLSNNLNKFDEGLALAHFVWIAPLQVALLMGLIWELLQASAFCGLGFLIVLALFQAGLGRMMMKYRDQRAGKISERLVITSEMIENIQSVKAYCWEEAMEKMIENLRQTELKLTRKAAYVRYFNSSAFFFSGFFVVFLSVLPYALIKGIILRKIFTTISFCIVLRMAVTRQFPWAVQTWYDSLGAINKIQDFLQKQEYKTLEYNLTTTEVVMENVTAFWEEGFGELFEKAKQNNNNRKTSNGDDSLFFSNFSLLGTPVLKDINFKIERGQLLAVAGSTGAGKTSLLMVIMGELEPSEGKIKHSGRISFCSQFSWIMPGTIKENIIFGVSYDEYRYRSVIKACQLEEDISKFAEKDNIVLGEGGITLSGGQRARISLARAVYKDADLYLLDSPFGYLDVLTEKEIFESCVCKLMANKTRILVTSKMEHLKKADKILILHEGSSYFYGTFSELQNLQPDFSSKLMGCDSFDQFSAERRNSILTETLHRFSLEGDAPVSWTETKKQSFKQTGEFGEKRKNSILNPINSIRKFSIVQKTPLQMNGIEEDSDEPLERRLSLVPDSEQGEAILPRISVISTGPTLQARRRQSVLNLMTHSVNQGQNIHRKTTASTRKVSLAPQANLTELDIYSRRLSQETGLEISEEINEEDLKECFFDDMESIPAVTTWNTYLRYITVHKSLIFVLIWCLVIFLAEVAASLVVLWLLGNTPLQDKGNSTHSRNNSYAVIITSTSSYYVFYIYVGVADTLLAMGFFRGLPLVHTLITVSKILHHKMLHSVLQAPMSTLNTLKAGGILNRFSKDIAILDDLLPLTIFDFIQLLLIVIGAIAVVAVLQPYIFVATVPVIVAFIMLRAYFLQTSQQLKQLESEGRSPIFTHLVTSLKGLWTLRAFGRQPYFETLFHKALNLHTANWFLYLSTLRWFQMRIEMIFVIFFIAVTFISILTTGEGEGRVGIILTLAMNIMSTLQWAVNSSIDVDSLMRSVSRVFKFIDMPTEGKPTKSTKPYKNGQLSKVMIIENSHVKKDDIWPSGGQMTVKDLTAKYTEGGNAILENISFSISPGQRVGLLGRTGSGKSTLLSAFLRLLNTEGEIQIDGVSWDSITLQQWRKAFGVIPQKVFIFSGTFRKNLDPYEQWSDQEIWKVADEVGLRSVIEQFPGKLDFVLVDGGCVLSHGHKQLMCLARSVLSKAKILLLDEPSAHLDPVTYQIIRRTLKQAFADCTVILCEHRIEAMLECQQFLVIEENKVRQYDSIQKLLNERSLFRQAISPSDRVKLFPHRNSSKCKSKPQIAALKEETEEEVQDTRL
- ASSAY TEXT: YFP-halide influx assay for the CFTR-R117H
- Protocol: The YFP halide influx assay measures the functionality of the cystic fibrosis Transmembrane Conductance regulator (CFTR) channels. […] It makes use of the observation that the yellow fluorescent protein (YFP) variant YFP H148Q, I152L, […] has its fluorescence substantially quenched by halide ions like Cl^− and I^−. […] The I^−-induced quenching of fluorescence is recorded immediately after injection of I^− for 7 seconds. […]
Give bare numbers, as −log10 of the molar value.

NC(=O)c1cc(S(=O)(=O)c2ccccc2OC(F)(F)F)sc1NC(=O)C1(CO)CC1 [Compound 320]
7.06

Required: pEC50, one value per compound below.
1. CC(C)(O)C(=O)Nc1sc(S(=O)(=O)c2c(F)cc(F)cc2OC(F)F)cc1C(N)=O [Compound 405]
2. CC(C)(O)C(=O)Nc1sc(S(=O)(=O)c2ccc(C(F)(F)F)cn2)cc1C(N)=O [Compound 363]
3. CC(C)(O)C(=O)Nc1sc(S(=O)(=O)c2cc(Cl)ccc2OC(F)F)cc1C(N)=O [Compound 401]

Marked response:
[6.81, 7.04, 7.06]

====

- TARGET SYSTEM: CFTR-S549N (Homo sapiens, UniProt P13569, S549N)
- Construct: expressed in transfected cells
- Sequence (P13569 whole entry S549N): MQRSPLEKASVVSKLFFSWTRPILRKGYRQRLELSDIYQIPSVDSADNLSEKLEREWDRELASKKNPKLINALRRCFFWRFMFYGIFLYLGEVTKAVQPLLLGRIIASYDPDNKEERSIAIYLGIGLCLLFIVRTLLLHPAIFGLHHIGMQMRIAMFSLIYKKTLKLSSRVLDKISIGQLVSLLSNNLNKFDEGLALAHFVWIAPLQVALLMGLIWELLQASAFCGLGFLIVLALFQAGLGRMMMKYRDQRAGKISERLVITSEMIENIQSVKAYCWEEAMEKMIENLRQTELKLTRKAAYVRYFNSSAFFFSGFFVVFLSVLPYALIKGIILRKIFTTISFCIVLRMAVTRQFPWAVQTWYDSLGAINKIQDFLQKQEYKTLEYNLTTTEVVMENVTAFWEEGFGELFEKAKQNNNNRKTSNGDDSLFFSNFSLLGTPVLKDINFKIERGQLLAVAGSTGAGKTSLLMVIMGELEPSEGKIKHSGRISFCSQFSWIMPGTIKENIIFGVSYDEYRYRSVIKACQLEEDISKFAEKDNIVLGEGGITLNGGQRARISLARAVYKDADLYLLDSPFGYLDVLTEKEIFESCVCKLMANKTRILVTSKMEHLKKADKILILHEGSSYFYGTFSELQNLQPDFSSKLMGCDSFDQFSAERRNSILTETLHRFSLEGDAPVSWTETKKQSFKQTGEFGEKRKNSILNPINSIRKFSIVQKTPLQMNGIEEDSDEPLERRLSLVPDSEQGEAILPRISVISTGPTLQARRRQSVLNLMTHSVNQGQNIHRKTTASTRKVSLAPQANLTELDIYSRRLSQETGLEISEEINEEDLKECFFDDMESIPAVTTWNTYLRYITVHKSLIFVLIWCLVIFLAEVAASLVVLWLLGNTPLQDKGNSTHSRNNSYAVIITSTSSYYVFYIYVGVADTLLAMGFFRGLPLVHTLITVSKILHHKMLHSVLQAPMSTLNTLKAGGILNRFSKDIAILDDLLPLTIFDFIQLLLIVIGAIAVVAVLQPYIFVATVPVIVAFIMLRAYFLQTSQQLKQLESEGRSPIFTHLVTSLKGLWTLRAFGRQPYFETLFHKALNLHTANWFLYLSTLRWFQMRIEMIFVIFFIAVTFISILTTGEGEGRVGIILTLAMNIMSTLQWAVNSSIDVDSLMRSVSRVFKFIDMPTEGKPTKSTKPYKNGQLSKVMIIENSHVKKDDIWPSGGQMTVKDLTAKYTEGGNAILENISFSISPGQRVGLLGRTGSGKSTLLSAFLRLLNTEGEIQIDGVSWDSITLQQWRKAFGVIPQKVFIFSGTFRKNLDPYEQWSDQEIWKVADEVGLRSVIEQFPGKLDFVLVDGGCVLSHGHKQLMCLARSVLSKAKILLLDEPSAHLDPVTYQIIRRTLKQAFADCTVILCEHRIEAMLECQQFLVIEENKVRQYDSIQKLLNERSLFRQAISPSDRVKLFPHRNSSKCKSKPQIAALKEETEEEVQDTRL
- ASSAY TEXT: YFP-halide influx assay for the CFTR-S549N
- Type: cell-based
MEASURED ENDPOINT: pEC50
Numbers only, as −log10 of the molar value.

Field: example entries. Status: answers known.
CC(C)(O)C(=O)Nc1sc(S(=O)(=O)c2cc(Cl)ccc2OC(F)(F)F)cc1C(N)=O
7.38
CC(C)(O)C(=O)Nc1sc(S(=O)(=O)c2cccc(C(F)(F)F)c2)cc1C(N)=O
6.28
CC(C)(O)C(=O)Nc1sc(S(=O)(=O)c2ccccc2OC(F)(F)F)cc1C(N)=O
7.22
COc1ccc(C(F)(F)F)c(S(=O)(=O)c2cc(C(N)=O)c(NC(=O)C(C)(C)O)s2)n1
6.84
COc1cc(C#N)cc(S(=O)(=O)c2cc(C(N)=O)c(NC(=O)C(C)(C)O)s2)c1OC(F)F
6.21
CC(C)(O)C(=O)Nc1sc(S(=O)(=O)c2nc(C(C)(C)C)ccc2C(F)(F)F)cc1C(N)=O
7.58

Hi! Can you tell me pEC50 for each of these molecules?
1. CC(C)c1nn(C)cc1S(=O)(=O)c1cc(C(N)=O)c(NC(=O)C(C)(C)O)s1
2. NC(=O)c1cc(S(=O)(=O)c2ccccc2)sc1NC(=O)c1cc[nH]n1

Marked response:
1: 5.95; 2: 6.45

Batch of 2 molecules: report pEC50 for each.
1. NC(=O)c1cc(S(=O)(=O)c2ccc(F)cc2)sc1NC(=O)C1(CO)CC1
2. CC(C)(O)C(=O)Nc1sc(S(=O)(=O)c2ccc(C(F)(F)F)c(Cl)n2)cc1C(N)=O

Marked response:
[6.61, 5.72]

// input: 7 molecules below; output: pEC50 for each
1. CC(C)(O)C(=O)Nc1sc(S(=O)(=O)c2ccc(C(F)(F)F)cc2F)cc1C(N)=O
2. CC(O)C(=O)Nc1sc(S(=O)(=O)c2ccc(F)cc2C(F)(F)F)cc1C(N)=O (centres unmarked)
3. Cc1ccc(C(F)(F)F)c(S(=O)(=O)c2cc(C(N)=O)c(NC(=O)C(C)(C)O)s2)n1
4. CC(C)(O)C(=O)Nc1sc(S(=O)(=O)c2c(Cl)cccc2Cl)cc1C(N)=O
5. CC(O)C(=O)Nc1sc(S(=O)(=O)c2ccc(F)cc2Cl)cc1C(N)=O (centres unmarked)
6. CC(C)(O)C(=O)Nc1sc(S(=O)(=O)c2cc(F)c(F)cc2OC(F)F)cc1C(N)=O
7. CC(C)(O)C(=O)Nc1sc(S(=O)(=O)c2c(F)cc(F)cc2OC(F)F)cc1C(N)=O

Marked response:
6.60
5.67
7.19
6.79
5.57
5.74
5.86
